# target.of.assay: Sodium-dependent noradrenaline transporter (Homo sapiens)
# Sequence (P23975 whole entry): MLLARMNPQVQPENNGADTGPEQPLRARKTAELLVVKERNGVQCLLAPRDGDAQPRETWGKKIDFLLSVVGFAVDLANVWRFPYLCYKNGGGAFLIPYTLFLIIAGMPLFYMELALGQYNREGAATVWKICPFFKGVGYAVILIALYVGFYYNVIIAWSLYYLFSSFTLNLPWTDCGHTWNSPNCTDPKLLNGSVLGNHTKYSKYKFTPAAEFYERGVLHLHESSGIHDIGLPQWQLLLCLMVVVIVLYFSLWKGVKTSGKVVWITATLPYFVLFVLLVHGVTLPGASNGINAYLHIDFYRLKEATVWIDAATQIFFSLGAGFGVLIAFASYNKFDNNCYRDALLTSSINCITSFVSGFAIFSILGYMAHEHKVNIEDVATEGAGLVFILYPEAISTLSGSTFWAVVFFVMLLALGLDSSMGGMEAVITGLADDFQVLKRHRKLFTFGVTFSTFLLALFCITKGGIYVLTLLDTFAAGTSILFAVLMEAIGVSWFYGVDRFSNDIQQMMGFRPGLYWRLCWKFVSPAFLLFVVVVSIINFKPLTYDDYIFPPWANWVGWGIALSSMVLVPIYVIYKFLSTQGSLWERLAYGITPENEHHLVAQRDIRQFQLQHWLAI
Each record here notes measured IC50.
endpoint.name: IC50 (nM)

>>> experimental_result("CNCCCC1Cc2ccccc2N(c2ccccc2)S1(=O)=O (single isomer, unassigned; enantiomer I)")
88
>>> experimental_result("CNCCCN1Cc2ccccc2N(c2ccc(C)cc2)S1(=O)=O")
140
>>> experimental_result("CNCCCC1Cc2cc(F)ccc2N(c2ccccc2F)S1(=O)=O.Cl (single isomer, unassigned; enantiomer II)")
11
>>> experimental_result("CNCCCC1Cc2ccccc2N(c2ccccc2F)S1(=O)=O.Cl (single isomer, unassigned; enantiomer II)")
3

---

Each record here notes measured IC50.
# target.of.assay: Sodium-dependent serotonin transporter (Homo sapiens, UniProt P31645)
# procedure.details: Inhibition of serotonin uptake at human SERT expressed in human JAR
# Sequence (P31645 whole entry): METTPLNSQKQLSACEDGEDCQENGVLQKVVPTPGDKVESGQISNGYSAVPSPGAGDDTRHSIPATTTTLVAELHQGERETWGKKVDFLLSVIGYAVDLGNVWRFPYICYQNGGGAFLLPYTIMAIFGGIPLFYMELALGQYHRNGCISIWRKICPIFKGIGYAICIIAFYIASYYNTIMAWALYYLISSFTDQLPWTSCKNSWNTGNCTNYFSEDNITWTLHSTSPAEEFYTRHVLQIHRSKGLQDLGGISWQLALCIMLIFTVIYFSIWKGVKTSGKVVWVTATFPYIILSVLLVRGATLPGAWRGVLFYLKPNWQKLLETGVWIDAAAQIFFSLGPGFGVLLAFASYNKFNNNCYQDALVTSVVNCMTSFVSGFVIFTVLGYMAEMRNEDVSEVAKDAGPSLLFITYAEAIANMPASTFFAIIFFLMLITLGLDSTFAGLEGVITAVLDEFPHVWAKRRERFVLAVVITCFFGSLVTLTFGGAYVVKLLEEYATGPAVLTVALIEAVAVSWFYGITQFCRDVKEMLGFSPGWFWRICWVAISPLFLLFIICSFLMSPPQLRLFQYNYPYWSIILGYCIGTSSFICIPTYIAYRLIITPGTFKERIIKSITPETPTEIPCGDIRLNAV
endpoint.name: IC50 (µM)

>>> experimental_result("CNCCCC1Cc2cc(F)ccc2N(c2ccccc2)S1(=O)=O (single isomer, unassigned; enantiomer II)")
0.24
>>> experimental_result("CNCCCC1Cc2ccccc2N(c2c(F)cccc2F)S1(=O)=O.Cl (single isomer, unassigned; 16f)")
8
>>> experimental_result("CNCCCC1Cc2ccccc2N(c2ccccc2)S1(=O)=O (single isomer, unassigned; enantiomer I)")
6.9
>>> experimental_result("CNCCCC1Cc2cc(F)ccc2N(c2ccccc2F)S1(=O)=O.Cl (single isomer, unassigned; enantiomer II)")
0.34

---

# target.of.assay: Sodium-dependent dopamine transporter (Homo sapiens)
# Sequence (Q01959 whole entry): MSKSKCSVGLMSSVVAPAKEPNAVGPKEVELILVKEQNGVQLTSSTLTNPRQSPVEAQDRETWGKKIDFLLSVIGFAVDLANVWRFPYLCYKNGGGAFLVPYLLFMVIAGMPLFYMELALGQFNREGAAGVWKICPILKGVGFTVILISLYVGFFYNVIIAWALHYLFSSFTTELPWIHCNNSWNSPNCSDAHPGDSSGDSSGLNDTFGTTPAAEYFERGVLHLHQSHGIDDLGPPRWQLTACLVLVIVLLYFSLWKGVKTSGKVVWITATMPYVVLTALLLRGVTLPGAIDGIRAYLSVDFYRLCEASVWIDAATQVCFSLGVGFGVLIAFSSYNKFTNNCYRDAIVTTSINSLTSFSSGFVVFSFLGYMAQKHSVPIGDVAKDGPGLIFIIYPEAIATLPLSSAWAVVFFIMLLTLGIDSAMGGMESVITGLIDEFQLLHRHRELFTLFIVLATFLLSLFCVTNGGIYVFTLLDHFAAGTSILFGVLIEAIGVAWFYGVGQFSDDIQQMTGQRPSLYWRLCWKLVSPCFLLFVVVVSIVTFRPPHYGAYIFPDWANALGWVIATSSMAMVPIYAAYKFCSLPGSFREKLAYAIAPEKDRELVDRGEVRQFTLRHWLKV
# procedure.details: Displacement of [3H]WIN-35428 from human recombinant DAT expressed in CHO cells at 10 uM
# Type: cell-based
Each record here notes measured inhibition.
endpoint.name: inhibition (%)

>>> experimental_result("CNCCCC1Cc2ccccc2N(c2ccccc2F)S1(=O)=O (single isomer, unassigned; enantiomer I)")
21
>>> experimental_result("CNCCCC1Cc2ccccc2N(c2ccccc2F)S1(=O)=O (single isomer, unassigned; enantiomer II)")
23
>>> experimental_result("CNCCCC1Cc2ccccc2N(c2c(F)cccc2F)S1(=O)=O (single isomer, unassigned; 16f)")
3.8
>>> experimental_result("CNCCCC1Cc2cc(F)ccc2N(c2ccccc2F)S1(=O)=O (single isomer, unassigned; enantiomer II)")
50

---

# target.of.assay: UniProt Q01959
# procedure.details: Displacement of [3H]WIN-35428 from human recombinant DAT expressed in CHO cells at 1 uM
# Format: cell-based
endpoint.name: inhibition (%)

>>> experimental_result("CNCCN1Cc2cc(F)ccc2N(c2ccccc2F)S1(=O)=O")
-5
>>> experimental_result("CNCCN1Cc2ccccc2N(c2ccccc2F)S1(=O)=O")
24
>>> experimental_result("CNCCCCN1Cc2cc(F)ccc2N(c2ccccc2F)S1(=O)=O")
25
>>> experimental_result("CNCCCN1Cc2ccccc2N(c2ccccc2F)S1(=O)=O")
-7
>>> experimental_result("CNCCCN1Cc2ccccc2N(c2ccccc2)S1(=O)=O")
17
>>> experimental_result("CNCCCCN1Cc2ccccc2N(c2ccccc2F)S1(=O)=O")
18
>>> experimental_result("CNCCCN1Cc2cc(F)ccc2N(c2ccccc2F)S1(=O)=O")
2.5

---

# procedure.details: Half life in rat liver microsomes at 1 uM
endpoint.name: half-life at 1 µM (min)

>>> experimental_result("CNCCCC1Cc2ccccc2N(c2c(F)cccc2F)S1(=O)=O.Cl (single isomer, unassigned; 16f)")
4
>>> experimental_result("CNCCCC1Cc2ccccc2N(c2c(F)cccc2F)S1(=O)=O (single isomer, unassigned; 16e)")
3
>>> experimental_result("CNCCCC1Cc2ccccc2N(c2ccccc2)S1(=O)=O (single isomer, unassigned; enantiomer I)")
3

---

# target.of.assay: Sodium-dependent serotonin transporter (Homo sapiens, UniProt P31645)
# procedure.details: Inhibition of serotonin uptake at human SERT expressed in human JAR
Each record here notes measured IC50.
endpoint.name: IC50 (µM)

>>> experimental_result("CNCCCCN1Cc2cc(F)ccc2N(c2ccccc2F)S1(=O)=O")
0.11
>>> experimental_result("CNCCCCN1Cc2ccccc2N(c2ccccc2F)S1(=O)=O")
2
>>> experimental_result("CNCCN1Cc2cc(F)ccc2N(c2ccccc2F)S1(=O)=O")
13.3
>>> experimental_result("CNCCCC1Cc2cc(F)ccc2N(c2ccccc2F)S1(=O)=O (single isomer, unassigned; enantiomer I)")
0.72
>>> experimental_result("CNCCCN1Cc2cc(F)ccc2N(c2ccccc2F)S1(=O)=O")
1.5
>>> experimental_result("CNCCCC1Cc2ccccc2N(c2ccccc2)S1(=O)=O.Cl (single isomer, unassigned; enantiomer II)")
2.5
>>> experimental_result("CNCCCN1Cc2ccccc2N(c2ccccc2)S1(=O)=O")
6
>>> experimental_result("CNCCCN1Cc2ccccc2N(c2ccccc2F)S1(=O)=O")
5.5
>>> experimental_result("CNCCCC1Cc2cc(F)ccc2N(c2c(F)cccc2F)S1(=O)=O.Cl (single isomer, unassigned; enantiomer II)")
0.6

---

# target.of.assay: Sodium-dependent dopamine transporter (Homo sapiens)
pIC50: −log10 of the molar value.
endpoint.name: pIC50

>>> experimental_result("CNCCCC1Cc2cc(F)ccc2N(c2ccccc2)S1(=O)=O (single isomer, unassigned; enantiomer II)")
5.40

---

# procedure.details: Half life in rat liver microsomes at 1 uM
Each record here notes measured half-life at 1 µM.
endpoint.name: half-life at 1 µM

>>> experimental_result("CNCCCC1Cc2cc(F)ccc2N(c2c(F)cccc2F)S1(=O)=O (single isomer, unassigned)")
"> 30 min"
>>> experimental_result("CNCCCC1Cc2ccccc2N(c2ccccc2F)S1(=O)=O (single isomer, unassigned; enantiomer I)")
"< 1 min"
>>> experimental_result("CNCCCC1Cc2ccccc2N(c2ccccc2F)S1(=O)=O.Cl (single isomer, unassigned; enantiomer II)")
"< 1 min"

---

# target.of.assay: Sodium-dependent serotonin transporter (Homo sapiens)
# procedure.details: Inhibition of serotonin uptake at human SERT expressed in human JAR at 6 uM
# Sequence (P31645 whole entry, looked up): as the sequence (P31645 whole entry) above
Quick rule: inhibition of at least 80% means criterion met, below that means criterion not met.

>>> class("CNCCCC1Cc2ccccc2N(c2ccccc2F)S1(=O)=O (single isomer, unassigned; enantiomer I)")
"criterion not met"
>>> class("CNCCCC1Cc2cc(F)ccc2N(c2ccccc2)S1(=O)=O (single isomer, unassigned; enantiomer I)")
"criterion met"
>>> class("CNCCCC1Cc2ccccc2N(c2c(F)cccc2F)S1(=O)=O (single isomer, unassigned; 16e)")
"criterion not met"
>>> class("CNCCCC1Cc2ccccc2N(c2ccccc2F)S1(=O)=O (single isomer, unassigned; enantiomer II)")
"criterion not met"

---

# procedure.details: Half life in rat liver microsomes at 1 uM
endpoint.name: half-life at 1 µM

>>> experimental_result("CNCCCC1Cc2cc(F)ccc2N(c2ccccc2F)S1(=O)=O.Cl (single isomer, unassigned; enantiomer II)")
"> 30 min"
>>> experimental_result("CNCCCC1Cc2ccccc2N(c2ccccc2)S1(=O)=O.Cl (single isomer, unassigned; enantiomer II)")
"< 1 min"
>>> experimental_result("CNCCCC1Cc2cc(F)ccc2N(c2c(F)cccc2F)S1(=O)=O.Cl (single isomer, unassigned; enantiomer II)")
"> 30 min"
>>> experimental_result("CNCCCC1Cc2cc(F)ccc2N(c2ccccc2F)S1(=O)=O (single isomer, unassigned; enantiomer I)")
"> 30 min"

This collection of values is drawn from ChEMBL document CHEMBL1155376.
